- target.of.assay: Motilin Receptor (Oryctolagus cuniculus, UniProt G1T803)
- Construct: The muscle tissue was homogenized in 10 volumes of 50 mM Tris-Cl; from tissue; host or cells: rabbit colon smooth muscle, crude membrane homogenate
- Sequence (G1T803 1-400): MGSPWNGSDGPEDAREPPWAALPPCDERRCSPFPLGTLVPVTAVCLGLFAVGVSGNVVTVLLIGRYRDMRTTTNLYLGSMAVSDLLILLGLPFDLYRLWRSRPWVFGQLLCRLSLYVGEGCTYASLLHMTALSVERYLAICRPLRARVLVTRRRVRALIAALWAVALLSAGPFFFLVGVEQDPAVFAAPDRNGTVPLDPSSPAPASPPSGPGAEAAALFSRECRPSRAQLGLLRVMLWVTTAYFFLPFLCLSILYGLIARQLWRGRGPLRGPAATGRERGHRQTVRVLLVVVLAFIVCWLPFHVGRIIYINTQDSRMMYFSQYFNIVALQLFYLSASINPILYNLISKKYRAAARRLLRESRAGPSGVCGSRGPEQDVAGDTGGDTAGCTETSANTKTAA
- protocol.details: Motilin receptor binding, rabbit colon membranes, 125I porcine motilin
- condition.description: rabbit colon membranes; read-out: Rabbit Colon IC50
Give measured pIC50 for each item. Keep answers brief.
One number for each entry, as −log10 of the molar value.

Please review the entries below; each comes with its answer.
CN(C)CCCOc1cccc(N(Cc2ccc(F)cc2)C(=O)CCCC(=O)N(CCc2ccccc2)Cc2ccccc2)c1    6.64
O=C(Nc1ccccc1)N(CC1CCCC(N(Cc2cccc([N+](=O)[O-])c2)C(=O)C(Cl)(Cl)Cl)C1)c1cccc(OCCN2CCOCC2)c1 (centres unmarked)    7.46
O=C(c1ccc(F)cc1)N(CC1CCCC(N(Cc2ccccn2)C(=O)C(Cl)(Cl)Cl)C1)c1cccc(OCCN2CCOCC2)c1 (centres unmarked)    6.31

Go through the items and report each one's pIC50.
1. O=C(c1ccc(F)cc1)N(CC1CCCC(N(Cc2cccc(Cl)c2)C(=O)C(F)(F)F)C1)c1cccc(OCCN2CCOCC2)c1 (centres unmarked)
2. O=C(CCCC(=O)N(Cc1ccc(F)cc1)c1cccc(OCCN2CCOCC2)c1)N(CCc1ccccc1)Cc1cccc(Cl)c1

RESULT:
1. 6.09
2. 6.75
